# Tgt: UniProt P21554
# Sequence (P21554 whole entry): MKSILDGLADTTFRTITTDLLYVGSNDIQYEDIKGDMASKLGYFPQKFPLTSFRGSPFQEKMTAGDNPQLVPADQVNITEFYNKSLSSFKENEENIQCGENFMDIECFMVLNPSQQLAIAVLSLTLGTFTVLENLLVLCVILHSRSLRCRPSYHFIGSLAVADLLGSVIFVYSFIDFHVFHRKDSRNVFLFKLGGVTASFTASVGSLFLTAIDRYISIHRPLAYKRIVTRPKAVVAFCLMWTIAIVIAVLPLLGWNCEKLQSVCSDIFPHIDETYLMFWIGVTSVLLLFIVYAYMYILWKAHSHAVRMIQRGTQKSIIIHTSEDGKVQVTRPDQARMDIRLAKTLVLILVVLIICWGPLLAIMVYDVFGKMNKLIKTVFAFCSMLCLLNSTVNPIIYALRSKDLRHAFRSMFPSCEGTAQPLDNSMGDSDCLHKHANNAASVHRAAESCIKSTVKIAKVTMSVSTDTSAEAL
pIC50: −log10 of the molar value.
Reported metric: pIC50

[[record]]
structure_smiles_string = "COc1ccc(N(C(=O)c2ccc(Cl)cc2Cl)c2nc3ccc(N)cc3s2)cc1OC"
tgt = "UniProt P21554"
test_result = 6.08

